assayProtocol: NCI Yeast Anticancer Drug Screen. Data for the mec2-1 strain (AID 157)
protocolConditions: S. cerevisiae mec2-1 strain, at 50.0 µM
About 79,000 compounds went through this panel and 15% of them were active in at least one assay; those are over-represented in the sample as a whole. Activity calls are given as the source filed them. No stated cut-off is given here; in the data, active means growth inhibition above about 70%; inactive means the rest.
Outcome codes: Yes = active, No = inactive

compound	answerLabel
O=c1[nH]ncc(SCc2ccccc2)c1SCc1ccccc1	Yes
O=C1C(C=NC(=S)c2ccccc2)=C(O)c2ccccc21	No
O=[N+]([O-])C12CCCCC1([N+](=O)[O-])CCCC2 (stereo unspecified)	No
O=S1CCS(=O)C1c1ccccc1 (stereo unspecified)	No
O=[N+]([O-])/C=C/c1c[nH]c2c1ccc1ccccc12	Yes
O=C1C2=C(CCCC2)C(=O)C(Cl)C1Cl (stereo unspecified)	Yes
CCCCCCCCCCCCCCCC(=O)NCC[N+](C)(CC)CC	No
Nc1cc2[nH]c(=O)c3cc(Cl)ccc3c2cc1Cl	No
CNc1ccc(N=O)cc1	Yes
C/C(=N/NC(=S)Nc1ccccc1Cl)c1ccccn1	No
C/C(=N/NC(=S)Nc1cccc(C)c1)c1ccccn1	Yes
OC(C(=Nc1ccccc1)c1ccccc1)c1ccccc1 (stereo unspecified)	Yes
CC(=O)/C(=C\c1ccco1)C(=O)Nc1ccccc1	No
Brc1c2nc3ccccc3nc2n2ccc3ccccc3c12	No
O=C(C[n+]1ccc2ccccc2c1)c1ccc2ccc3ccccc3c2c1	Yes
COc1ccccc1NC(=O)/C(=C/c1ccccc1)C(C)=O	No
CCCCCCCCCCCCCCCc1ncc(C)[nH]1	Yes
S=c1sc2ccccc2n1CNc1ccccc1	No
Cc1[nH]nc(-c2cccnc2)c1N=NN1CCOCC1	Yes
Cc1cc(C)c2c(c1)sc1nncn12	Yes
COc1ccc2c(C)cc(N/N=C/c3cccc(C)n3)nc2c1	No
CN(C)c1ccc(N=Nc2ccc(/C=C3\CCOC3=O)cc2)cc1	No
O=S(=O)(Nc1ccc2ccc3cccc4ccc1c2c34)c1ccccc1	No
CCN(C(C)=O)c1cnc(/C=N/NC(N)=S)c2ccccc12	Yes
CS(=O)(=O)c1ccc(C[N+]23CN4CN(CN(C4)C2)C3)cc1	No
COc1ccc(C2SC(N)=Nc3c2c(C)nn3C(=O)c2ccccc2O)cc1OC (stereo unspecified)	No

* * *

Listed here: items and their measured growth inhibition.
assayProtocol: NCI Yeast Anticancer Drug Screen. Data for the mlh1 rad18 strain (AID 175)
protocolConditions: S. cerevisiae mlh1 rad18 strain growth inhibition; at 5.0 µM (retest, dose inferred, filed as 0.5); active compounds read high
About 79,000 compounds went through this panel and 15% of them were active in at least one assay; those are over-represented in the sample as a whole.

compound	units	growth inhibition
CC[C@@]1(OP(=O)(O)O)C(=O)OCc2c1cc1n(c2=O)Cc2cc3ccccc3nc2-1	%	49
CN(C)N=Nc1c(-c2ccccc2)n[nH]c1-c1ccccc1	%	99
O=C(O)/C=C/c1c2ccccc2cc2ccccc12	%	47
CCSc1nc2ccc(N3C(=O)C=CC3=O)cc2s1	%	98
[Cl][Sn]([CH2][CH2][Sn]([Cl])([c]1ccccc1)[c]1ccccc1)([c]1ccccc1)[c]1ccccc1	%	99
Cc1cnc2c(c1C)C(=O)c1ccccc1C2=O	%	26
CCCCC(/C=N\NC(=O)c1ccc[n+](C)c1)=C/c1ccccc1	%	-1
Cc1cccc2c1Oc1ccccc1C2N1C(=O)/C(=C/c2cccs2)SC1=S (stereo not given)	%	2
COc1cc2c3c(c4ccc(OC)c(OC)c4c2cc1OC)CN1CCC[C@@H]1C3	%	-29
CN(c1ccccc1)c1c2c(oc(=O)c1Cl)-c1ccccc1SC2	%	7
COc1cccc(C2c3cc4c(cc3OC(N3CCCC3)C2C)OCO4)c1 (stereo not given)	%	-32
Cc1nc(N)nn1C	%	1
S=c1c2cn[nH]c2nc2scc(-c3ccc(Cl)cc3)n12	%	11
CN1CCC(CCC(=O)OC(C)(C)C)(CN2c3ccccc3Sc3ccccc32)C1 (stereo not given)	%	19
O=C(OC1CC2CC1C1CC=CC21)c1ccccc1 (stereo not given)	%	-5
CC(C)NCC=C=Nc1ccccc1	%	-9
C=C1C(=O)O[C@@H]2C[C@@]3(C)CCC[C@H](C)C3=C[C@H]12	%	14
CC(=O)N=C1N(/C=C2\C(=O)Oc3ccccc3C2=O)C(=O)/C(=C/c2cccc(Cl)c2Cl)N1C	%	13
COc1ccccc1NC(=O)/C(=C/c1ccccc1)C(C)=O	%	3
CCCCCCCCS(=O)(=O)Nc1ccccc1	%	-5
Cc1ccc2nc(-c3ccc(N)cc3)sc2c1	%	-1
Nc1nn2c(C(Br)Br)cc(C(Br)Br)nc2c1[N+](=O)[O-]	%	100
CC(C)(C)C(=O)Nc1ccc2c(c1)C(=O)c1ccccc1C2=O	%	62
CC1=C(C(=O)Nc2ccc(C)cc2C)C(c2cccc([N+](=O)[O-])c2)C(C(=O)Nc2ccc(C)cc2C)=C(C)N1	%	4
O=C1CSC(=S)N1c1cccc(Cl)c1	%	24
CCN(CC)c1c(C(=O)/C=C/c2ccc(F)cc2)c(-c2ccccc2)nn(C)c1=O	%	1
CC(=O)Oc1ccc(Cl)cc1Cc1cc(Cl)ccc1OC(C)=O	%	2
O=C(Sc1c(-c2ccccc2)c(=O)n(-c2ccccc2)c(=S)n1-c1ccccc1)c1cccs1	%	66
COc1ccc2c(c1)CCCN2CCCCCCCCCCN1CCCCC1	%	25
COC(=O)C1C2CC3c4[nH]c5cc(OC)c(Br)cc5c4CCN3CC2CC(OC(=O)c2cc(OC)c(OC)c(OC)c2)C1OC (stereo not given)	%	-30
CC(=O)C(C=O)C(C)=O.CC(=O)CC(C)=O.CC(=O)CC(C)=O.[Ru]	%	11
COc1ccc(CCCC(=O)O)c2c(OC)cccc12	%	5
Cc1cccc(/C=N/NC(=S)Nc2ccc(Cl)cc2)n1	%	35
C(=[CH]/[Sn]([c]1ccccc1)([c]1ccccc1)[c]1ccccc1)/c1ccccc1	%	97
C/C=C/C=C/C(=O)Nc1ccc([N+](=O)[O-])cc1	%	0
Cc1ccc(S(=O)(=O)OC2C(C)OCOC(C)C2OS(=O)(=O)c2ccc(C)cc2)cc1 (stereo not given)	%	1
NC(=Nc1cc2ccccc2c2ccccc12)Nc1cc2ccccc2c2ccccc12	%	97
C(=C\N1CCCCC1)/c1nnnn1-c1ccccc1	%	-4
CCCC(=O)N(C(=O)CCC)C1=C(Cl)C(=O)c2ccccc2C1=O	%	48
Oc1ccc(N=Nc2cc(Cl)ccc2Cl)cc1	%	94
CCCCCCCCCCCCCC(=O)CC(=O)c1c(O)cccc1O	%	35
CC1CCCC(C)C1=O (stereo not given)	%	2
Clc1ccc(CN2COc3c(cc(Cl)c4cccnc34)C2)cc1Cl	%	13
C1=C(c2c(-c3ccccc3)[nH]c3ccccc23)Cc2ccccc21	%	3
CS(C)=O.[Cl-].[Cl-].[NH-]CC(O)CN(Cc1ccccc1)CC(O)CN.[Pt] (stereo not given)	%	-13
